The following molecules each carry a recorded Kd for kinase enzymes (Homo sapiens, UniProt P48736).
Return type: number; implicit unit µM.

A selection of reference data follows.
molecule="CC(Nc1cccc(Cl)c1)c1cc(C(=O)N2CCOCC2)cc2ncc(N3CCOCC3)nc12 (stereo not drawn)" recorded_measurement=11.7
molecule="CC(Oc1cc(F)cc(F)c1)c1cc(C(=O)NCCO)cc2ncc(N3CCOCC3)nc12 (single isomer, unassigned)" recorded_measurement=11.7
molecule="CC1CN(c2cnc3cc(C(=O)N(C)C)cc(C(C)Nc4cccc(F)c4)c3n2)CCO1 (stereo not drawn)" recorded_measurement=5.13
molecule=O=C(NCCO)c1cc(NCc2cccc(F)c2)c2nc(N3CCOCC3)cnc2c1 recorded_measurement=18.2
molecule="[2H]C([2H])(O)C([2H])([2H])NC(=O)c1cc(C(C)Nc2cccc(F)c2)c2nc(N3CCOCC3)cnc2c1 (single isomer, unassigned) [Compound 408b]" recorded_measurement=8.13
molecule="CN[C@H]1CCN(C(=O)c2cc(C(C)Nc3ccc(F)c(F)c3)c3nc(N4CCOCC4)cnc3c2)C1 (single isomer, unassigned) [Compound 365b]" recorded_measurement=22.9
molecule="CC(Nc1cc(F)cc(F)c1)c1cc(C(=O)NC[C@@H](C)O)cc2ncc(N3CCOCC3)nc12 (single isomer, unassigned)" recorded_measurement=4.45
molecule="CC(Oc1cc(F)c(F)c(F)c1)c1cc(C(=O)N(C)C2CCNC2)cc2ncc(N3CCOCC3)nc12 (single isomer, unassigned) [Compound 404b]" recorded_measurement=16.6
molecule="CNCCN(C)C(=O)c1cc(C(C)Nc2cc(F)c(F)c(F)c2)c2nc(N3CCOCC3)cnc2c1 (single isomer, unassigned) [Compound 335a]" recorded_measurement=1.22

Let us examine a further case.
Query block: Lab request: please report Kd under test system kinase enzymes (Homo sapiens, UniProt P48736) for CNCCNC(=O)c1cc(C2CCCN2c2cc(F)cc(F)c2)c2nc(N3CCOCC3)cnc2c1 (single isomer, unassigned)
Result block: 0.107
